Tested on: Echinochloa crus-galli (ECHCG)
Test: Pre-emergence herbicidal action against ECHCG
Format: in vivo
Conditions: dosage 320 g/ha
measuredProperty: Pre-emergence action against ECHCG in % (%)
Unit % implied. Number only.

Sample records with Pre-emergence action against ECHCG in %:
Identify measured Pre-emergence action against ECHCG in % obtained with Echinochloa crus-galli (ECHCG) for O=C(COc1nn(-c2ccccn2)c(-c2ccc(F)nc2)c1Br)OCC1CCCO1 (stereo not drawn) . 100

Identify measured Pre-emergence action against ECHCG in % obtained with Echinochloa crus-galli (ECHCG) for `C[C@@H](Oc1nn(-c2ccccn2)c(-c2cncc(F)c2)c1Br)C(=O)O` . 100

Continuing:
Identify measured Pre-emergence action against ECHCG in % obtained with Echinochloa crus-galli (ECHCG) for `COC(=O)[C@H](C)COC(=O)COc1nn(-c2ccccn2)c(-c2cncc(F)c2)c1Br` . 100

Identify measured Pre-emergence action against ECHCG in % obtained with Echinochloa crus-galli (ECHCG) for `CCOC(=O)COc1nn(-c2ncccc2C(F)(F)F)c(-c2cncc(F)c2)c1Br` . 90

Identify measured Pre-emergence action against ECHCG in % obtained with Echinochloa crus-galli (ECHCG) for `O=C(O)COc1nn(-c2nc(F)ccc2F)c(-c2ccc(F)nc2)c1Cl` . 90

---

Tested on: Amaranthus retroflexus (AMARE)
Assay: Post-emergence herbicidal action against AMARE
Type: in vivo
Details: 80 g/ha, visual rating about 3 weeks after treatment vs untreated controls (100% = plants have died, 0% = like control plants)
measuredProperty: Post-emergence action against AMARE in % (%)
Unit % implied. Number only.

Using the record for `O=C(O)COc1nn(-c2ccnc(Cl)c2)c(-c2ccc(F)nc2)c1Br` , state its measured Post-emergence action against AMARE in %. 90

Using the record for `COC(=O)[C@H](C)NC(=O)COc1nn(-c2ccnc(Cl)c2)c(-c2ccc(F)nc2)c1Br` , state its measured Post-emergence action against AMARE in %. 80

Using the record for `COC(=O)CCOC(=O)[C@@H](C)Oc1nn(-c2ccccn2)c(-c2ccc(F)nc2)c1Cl` , state its measured Post-emergence action against AMARE in %. 80

Continuing:
Using the record for `Cc1cccnc1-n1nc(OCC(=O)O)c(Br)c1-c1ccc(F)nc1` , state its measured Post-emergence action against AMARE in %. 90

Using the record for `COC(=O)COc1nn(-c2ncccc2F)c(-c2ccc(F)nc2)c1C1CC1` , state its measured Post-emergence action against AMARE in %. 90

Using the record for CCOC(=O)COc1nn(-c2ccccn2)c(-c2ccc(F)nc2)c1Cl [Example I-85] , state its measured Post-emergence action against AMARE in %. 90

Using the record for `COC(=O)COc1nn(-c2ncccc2F)c(-c2cncc(F)c2)c1C1CC1` , state its measured Post-emergence action against AMARE in %. 80

Using the record for `C[C@@H](Oc1nn(-c2ccccn2)c(-c2ccc(F)nc2)c1Cl)C(=O)NCC(=O)O` , state its measured Post-emergence action against AMARE in %. 80

---

Listed next: entries and their corresponding Post-emergence action against AMARE in %.
System: Amaranthus retroflexus (AMARE)
Test: Post-emergence herbicidal action against AMARE
Assay type: in vivo
Details: 320 g/ha, visual rating about 3 weeks after treatment
Unit % implied. Number only.

Sample records with Post-emergence action against AMARE in %:
Using the record for COC(=O)C(C)NC(=O)[C@@H](C)Oc1nn(-c2ccccn2)c(-c2cncc(F)c2)c1Br (some centres unmarked) [Example I-190] , state its measured Post-emergence action against AMARE in %. 80

Using the record for CCOC(=O)COc1nn(-c2cccc(C)n2)c(-c2ccc(F)nc2)c1Cl [Example I-352] , state its measured Post-emergence action against AMARE in %. 80

Using the record for CS(=O)(=O)CCOC(=O)COc1nn(-c2ccccn2)c(-c2ccc(F)nc2)c1Br [Example I-313] , state its measured Post-emergence action against AMARE in %. 90

Using the record for CCOC(=O)[C@@H](C)Oc1nn(-c2ncccc2F)c(-c2ccc(F)nc2)c1C1CC1 [Example I-375] , state its measured Post-emergence action against AMARE in %. 80

Using the record for COC(=O)COc1nn(-c2ncccc2F)c(-c2ccc(F)nc2)c1Br [Example I-07] , state its measured Post-emergence action against AMARE in %. 90

Using the record for O=C(O)CSc1nn(-c2ccccn2)c(-c2ccc(F)nc2)c1Br [Example I-69] , state its measured Post-emergence action against AMARE in %. 80

Using the record for O=C(O)COc1nn(-c2nc(F)ccc2F)c(-c2ccc(F)nc2)c1Cl [Example I-337] , state its measured Post-emergence action against AMARE in %. 80

Continuing:
Using the record for COC(=O)C(C)COC(=O)[C@@H](C)Oc1nn(-c2ccccn2)c(-c2ccc(F)nc2)c1Cl (some centres unmarked) [Example I-267] , state its measured Post-emergence action against AMARE in %. 80
